apparent KD of MS2 coat protein for assorted sequences
# Test system: MS2 coat protein
# Method notes: apparent KD of MS2 coat protein; designed switch direction (-1 OFF switch, 1 ON switch): -1; higher = weaker reporter binding
# Study conditions: input ligand: none
Kindly write the number and append the unit.

The cases that follow already have their apparent KD of MS2 coat protein on record.
CCGGAAAGGAAGGAUAUGCUAGACGAAAGUCUAGCAGAAGGUCCUACAUGAGGAUCACCCAUGUGGUCCUCCGG [Eli x6 4.06] (Eterna round: R97, puzzle: Exclusion 6) : 1470 nM
CUGAUGUGAGGAUAUCGGGCUACGGCCAGGCCGCUAGCAUUCGAGAAGGCACAUGAGGAUCACCCAUGUGAGAA [Laquzara] (Eterna round: R96, puzzle: Exclusion 4) : 153 nM
AGAGAAUACUCAGGAUAUCUGAAUAGAAAGAGAAGAGAAGGGAGACAUGAGGAUCACCCAUGUGAAGUCUUGAGGCUGCAUGGA [Prohibition 25 - Jieux - Exclusion NG 1] (Eterna round: R96, puzzle: Exclusion NG 1) : 106 nM
UGCAGACGAGGAUAUGAUUAAUAAUACAUGAGGAUCACCCAUGUAAUACUGAUCUAUGGAUCAGAAGGCGUCUGCA [E5/6-A1] (Eterna round: R97, puzzle: Exclusion 5) : 12.9 nM
AGAGAAUAGUCAGGAUAUGUGAAUAGAUAGAGAACAGAAGGGACACAUGAGGAUCACCCAUGUGAAGUCUUGAGGCUGCGUGGA [Prohibition 21 - Jieux - Exclusion NG 1] (Eterna round: R96, puzzle: Exclusion NG 1) : 20.3 nM

input: Consider the sequence ACUAGGAGAUUAGGAUAUCUAUCUCACAUGAGGAUCACCCAUGUAUAAGCGUCCUAAAGGUGGAUGGAGAAGGGAUGUCCGAAG [Eternabot solution 13] (Eterna round: R96, puzzle: Exclusion NG 2) and give its measured apparent KD of MS2 coat protein.
output: 17.5 nM

input: What value of measured apparent KD of MS2 coat protein is listed for UAUUAGCAAGCGAGAUCUCACAUGAGGAUCACCCAUGUGCUCGUCUUAUAAGGUACUGUGACGAGAGUCACGGUACC [Mat - Sensor, turn-off var - Eli Mod - D37] (Eterna round: R97, puzzle: Sensor, turn-off variant 1) ?
output: 14.1 nM

input: For the sequence AGCGUCUGAGGAUAUGCAUCUUAUCAGUCCGUGCGUAAGCGACAUGAGGAUCACCCAUGUAGAAGGUAGAUGCG [Eternabot (L1) Solution 10] (Eterna round: R97, puzzle: Exclusion 2) , what apparent KD of MS2 coat protein is on record?
output: 17.6 nM

input: Given the sequence GGCGAGCAAGGAUAUGCAGGGUAUCCGACUCGCAGCGGGCGACAUGAGGAUCACCCAUGUAGAAGGUGCACGCG [EX2 A.6] (Eterna round: R97, puzzle: Exclusion 2) , what is its reported apparent KD of MS2 coat protein?
output: 31 nM

input: Could you tell me which apparent KD of MS2 coat protein is on file for AAGUCGAGCGUGAGGAUAUCGUUCGAACGACCGAACGAGAAGGCACAUGAGGAUCACCCAUGUGAUUCAGUUCA [Brourd's EX4 #46] (Eterna round: R97, puzzle: Brourd's mod of Exclusion 4) ?
output: 17.8 nM

input: Quick one: apparent KD of MS2 coat protein of UGAUCUAGCGGAGGAUAUACAUGAGGAUCACCCAUGUAGUAGUGAGUACCGUAGUGCUCACUUGUGUAGAAGGCCGCUAGAUCU [JL ENG2 3.60] (Eterna round: R96, puzzle: Exclusion NG 2) ?
output: 13.5 nM

input: Which apparent KD of MS2 coat protein is listed for AUAUAGAUAGUCAGGAUAUACUAGUGAUAACAGUAGUAGAAGGGACAUGAGGAUCACCCAUGUAGAUACUGCAC [Brourd's EX4 #2] (Eterna round: R97, puzzle: Brourd's mod of Exclusion 4) ?
output: 21.2 nM

input: Fill in: apparent KD of MS2 coat protein of UACAUGAGGAUCACCCAUGUUUUGUCGUGUAUGGUAUUUAUCUAGGAUAUCAUUUUAUUGAGUUAUGAGAAGGAGAAUAUUAAU [JMF's solution 91] (Eterna round: R96, puzzle: Exclusion NG 3) is ___
output: 32.3 nM

input: If you can, please state the reported apparent KD of MS2 coat protein value of UAUGAGCUAGGAUAUGCUUUGGGCUCGCUUUCCUUCGAUAAACUUGAGGAUCACCCAAGUAGAAGGAGCUUGUA [Mod 32 - Jieux - Exclusion 2] (Eterna round: R97, puzzle: Exclusion 2) .
output: 15.8 nM

input: Given the sequence AUUAUAAAUGUAGGAUAUCUGCACGUGUAGUGCAGAGAAGGACAUGAGGAUCACCCAUGUAGAUCAAUAAUAAUUAAUUUAAUU [ENG1/5-B3] (Eterna round: R96, puzzle: Exclusion NG 1) , what is its reported apparent KD of MS2 coat protein?
output: 49.2 nM

input: Which value of apparent KD of MS2 coat protein has been reported for GCUGCAAGAGGAUAUACAUGAGGAUCACCCAUGUGAAAUUAUAGUGAGGAAAUGAAAAGUAGAAGGCUUGUAGA [Mod of Mat 15 - Jieux - Exclusion 3] (Eterna round: R97, puzzle: Exclusion 3) in the records?
output: 38.1 nM

input: Request the reported apparent KD of MS2 coat protein associated with CAUGAUUGGGAAGGAUAUUGACCUAGUUAGCGACGAGAAGGUCCCUGUCACAUGAGGAUCACCCAUGUGAAUCUGGUGAAAGAG [Ex NG1 #100] (Eterna round: R96, puzzle: Exclusion NG 1)
output: 24.2 nM

input: Item under review: AGCAUGCAGUAGGAUAUCGAUCCACAAUAUGAACGAGAAGGGCUGACAUGAGGAUCACCCAUGUGCGUCCGAAG [Ersoontiri] (Eterna round: R97, puzzle: Exclusion 6) . Reported apparent KD of MS2 coat protein?
output: 16.8 nM

The measured values listed here are drawn from the supplement of paper PMC9170038.
